# TESTED TARGET: Adenosine receptors; A1 & A3 (Homo sapiens) (UniProt P30542+P0DMS8)
# Sequence (P0DMS8 whole entry, looked up): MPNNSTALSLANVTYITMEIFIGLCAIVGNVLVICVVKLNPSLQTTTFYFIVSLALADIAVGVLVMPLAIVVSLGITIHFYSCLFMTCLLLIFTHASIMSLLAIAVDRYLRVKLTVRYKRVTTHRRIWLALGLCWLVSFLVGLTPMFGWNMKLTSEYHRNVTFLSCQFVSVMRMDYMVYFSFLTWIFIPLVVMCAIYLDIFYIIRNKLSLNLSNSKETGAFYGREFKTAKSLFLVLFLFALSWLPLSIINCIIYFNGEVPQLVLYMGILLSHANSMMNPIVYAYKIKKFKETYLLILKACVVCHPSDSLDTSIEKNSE
# Sequence (P30542 whole entry, looked up): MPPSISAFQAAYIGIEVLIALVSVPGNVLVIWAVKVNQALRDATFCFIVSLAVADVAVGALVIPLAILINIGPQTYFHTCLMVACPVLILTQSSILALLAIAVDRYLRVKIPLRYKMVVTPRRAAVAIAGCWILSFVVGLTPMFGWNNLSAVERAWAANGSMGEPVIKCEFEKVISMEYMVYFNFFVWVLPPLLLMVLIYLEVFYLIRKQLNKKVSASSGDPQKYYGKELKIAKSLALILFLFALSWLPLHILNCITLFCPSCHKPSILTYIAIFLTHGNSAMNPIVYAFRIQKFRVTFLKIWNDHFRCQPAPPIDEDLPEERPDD
# ASSAY EXPLANATION: Selectivity ratio; ratio of pEC50 for human adenosine A1 receptor to pEC50 for human adenosine A3 receptor
Reported Selectivity ratio values are given for each entry in this list.

// below: answered compounds
>  <SMILES STRUCTURE>
CCN(CC)c1nc(NC2CCCC2)c2ncn([C@@H]3O[C@H](C(=O)NC)[C@@H](O)[C@H]3O)c2n1

>  <OUTCOME MEASURE>
Selectivity ratio

>  <MEAS VALUE>
> 4

$$$$
>  <SMILES STRUCTURE>
CNC(=O)[C@H]1O[C@@H](n2cnc3c(NC4CCCC4)nc(N)nc32)[C@H](O)[C@@H]1O

>  <OUTCOME MEASURE>
Selectivity ratio

>  <MEAS VALUE>
3

$$$$
>  <SMILES STRUCTURE>
CNC(=O)[C@H]1O[C@@H](n2cnc3c(NC4CCCCC4)nc(N)nc32)[C@H](O)[C@@H]1O

>  <OUTCOME MEASURE>
Selectivity ratio

>  <MEAS VALUE>
1

$$$$

q: Recorded Selectivity ratio for `CNC(=O)[C@H]1O[C@@H](n2cnc3c(NCc4cccc(I)c4)nc(N)nc32)[C@H](O)[C@@H]1O` , please?
a: 158

meta.source: ChEMBL document CHEMBL3132785
